Each item that follows carries a reported pEC50.
Molecular target: T1, huNav157 chimera 14 on cells (without β subunits) (human (huNav1.7α/huNav1.5α chimera))
T1 construct: also called HEK FlpIn Nav157ch14
Test: binding FACS, HEK FlpIn cells
pEC50: −log10 of the molar value.
Outcome Measure: pEC50

{"Binder": "F010301636 (VHH, also called F0103275B05(L11V, R76N, T83R, V89L)) VHH: EVQLVESGGGVVQPGGSLRLSCAASGSIFNINSMAWYRRAPGKQRELVASSTNGGSTNYADSVKGRFTISRDNAKNVYLQMNSLRPEDTALYYCNALLQPSIYDISRTYWGQGTLVTVSS", "Measured Number": 7.85}
{"Binder": "F010301637 (VHH, also called F0103275B05(L11V, T83R, V89L)) VHH: EVQLVESGGGVVQPGGSLRLSCAASGSIFNINSMAWYRRAPGKQRELVASSTNGGSTNYADSVKGRFTISRDNAKRVYLQMNSLRPEDTALYYCNALLQPSIYDISRTYWGQGTLVTVSS", "Measured Number": 7.96}

The measured values listed here are drawn from patent US20240002497A1.
